Listed next: entries and their corresponding pIC50.
Target: CLC-0 E166A mutant (Torpedo marmorata, UniProt P21564, C212S/E166A)
Assay type: cell-based
Conditions: read-out: Apparent affinity (K1/2); −160 mV
Please treat pIC50 as minus the base-10 logarithm of the molar concentration.

compound: CCCCCCCC(=O)O [octanoate]
value.reported: 5.72

Pending compound:
Request: What measured pIC50 goes with O=C(O)COc1ccc(Cl)cc1 [CPA, p-chlorophenoxy acetate] ?
Result: 5.00

---

Biological target: CLC-0 E166N mutant (Torpedo marmorata, UniProt P21564, C212S/E166N)
Sequence (P21564 1-805 E166N/C212S): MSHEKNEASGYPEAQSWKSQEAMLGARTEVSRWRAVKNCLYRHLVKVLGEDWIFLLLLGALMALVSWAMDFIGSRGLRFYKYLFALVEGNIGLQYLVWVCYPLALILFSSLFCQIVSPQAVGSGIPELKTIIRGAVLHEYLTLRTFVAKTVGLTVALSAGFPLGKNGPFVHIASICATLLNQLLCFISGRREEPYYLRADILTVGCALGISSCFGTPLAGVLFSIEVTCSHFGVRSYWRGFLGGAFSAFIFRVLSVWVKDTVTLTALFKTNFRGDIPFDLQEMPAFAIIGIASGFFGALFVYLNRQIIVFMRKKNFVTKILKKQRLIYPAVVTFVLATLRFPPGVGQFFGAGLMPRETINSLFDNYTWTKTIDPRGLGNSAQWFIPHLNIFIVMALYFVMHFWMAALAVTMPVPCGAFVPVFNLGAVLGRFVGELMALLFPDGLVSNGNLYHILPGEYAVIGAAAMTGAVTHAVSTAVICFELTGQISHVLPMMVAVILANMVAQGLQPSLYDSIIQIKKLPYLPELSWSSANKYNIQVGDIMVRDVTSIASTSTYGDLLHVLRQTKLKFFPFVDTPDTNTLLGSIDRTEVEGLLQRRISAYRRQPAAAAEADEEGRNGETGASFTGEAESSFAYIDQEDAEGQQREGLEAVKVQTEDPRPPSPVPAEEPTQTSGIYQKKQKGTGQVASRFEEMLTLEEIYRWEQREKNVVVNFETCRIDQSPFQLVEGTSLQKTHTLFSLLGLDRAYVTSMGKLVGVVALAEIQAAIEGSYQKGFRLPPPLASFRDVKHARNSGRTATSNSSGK
Assay type: cell-based
Details: read-out: Apparent affinity (K1/2); −160 mV
readout.type: IC50 (µM)
Numbers only here, please. The scale is µM.

compound: CCCCCCCC(=O)O [octanoate]
units.text: µM
IC50: 125

The record that follows has no IC50 shown yet.
Request: Value lookup for IC50; key = O=C(O)COc1ccc(Cl)cc1 [CPA, p-chlorophenoxy acetate]
Result: 380
